Answer each item with its documented relative viability.
# Test system: NCI-H2085
# measurement protocol: relative viability (nuclei count vs DMSO), 5 days (fraction); higher = more cells survive
# experimental parameters: first compound 0.01 µM
Enter a number only.

Req: Can you look up relative viability on NCI-H2085 for NC(=O)Nc1cc(-c2cccc(F)c2)sc1C(=O)N[C@H]1CCCNC1 [AZD7762] + CS(=O)(=O)N1CCN(Cc2cc3nc(-c4cccc5[nH]ncc45)nc(N4CCOCC4)c3s2)CC1 [Pictilisib] (partner 1 µM) ?
Resp: 0.407

Req: Then this compound: NC(=O)Nc1cc(-c2cccc(F)c2)sc1C(=O)N[C@H]1CCCNC1 [AZD7762] + CS(=O)(=O)CCNCc1ccc(-c2ccc3ncnc(Nc4ccc(OCc5cccc(F)c5)c(Cl)c4)c3c2)o1 [Lapatinib] (partner 2 µM)
Resp: 0.804

###

# Tested on: COR-L 105
# measurement protocol: relative viability (nuclei count vs DMSO), 5 days (fraction); higher = more cells survive
# experimental parameters: first compound 0.3162 µM
So I've got a bunch of compounds here, and I need their relative viability values.

Req: Suppose we examine the compound NC(=O)Nc1cc(-c2cccc(F)c2)sc1C(=O)N[C@H]1CCCNC1 [AZD7762] + CC(=O)c1c(C)c2cnc(Nc3ccc(N4CCNCC4)cn3)nc2n(C2CCCC2)c1=O [Palbociclib] (partner 0.5 µM) ; what relative viability value has been reported?
Resp: 0.386

Req: Can you handle NC(=O)Nc1cc(-c2cccc(F)c2)sc1C(=O)N[C@H]1CCCNC1 [AZD7762] + Nc1nc2[nH]cc(CCc3ccc(C(=O)N[C@@H](CCC(=O)O)C(=O)O)cc3)c2c(=O)[nH]1 [Pemetrexed] (partner 0.2 µM) next?
Resp: 0.87

Req: Next: NC(=O)Nc1cc(-c2cccc(F)c2)sc1C(=O)N[C@H]1CCCNC1 [AZD7762] + Nc1ncn([C@H]2C[C@H](O)[C@@H](CO)O2)c(=O)n1 [Decitabine] (partner 2 µM)
Resp: 0.55

Req: Could you do the same for NC(=O)Nc1cc(-c2cccc(F)c2)sc1C(=O)N[C@H]1CCCNC1 [AZD7762] + CC(C)C[C@H](NC(=O)[C@H](Cc1ccccc1)NC(=O)c1cnccn1)B(O)O [Bortezomib] (partner 0.002 µM) , please?
Resp: 0.389

###

# System: LU99A
# measurement protocol: relative viability (nuclei count vs DMSO), 5 days (fraction); higher = more cells survive
# experimental parameters: first compound 2.53 µM
measured property: relative viability
Give only the figure.

Req: Fill in the blank: the reported relative viability of Oc1nc(-c2ccc(C(F)(F)F)cc2)nc2c1CSCC2 [XAV939] + CS(=O)(=O)N1CCN(Cc2cc3nc(-c4cccc5[nH]ncc45)nc(N4CCOCC4)c3s2)CC1 [Pictilisib] (partner 1 µM) is ____.
Resp: 0.293

Req: Next entry: Oc1nc(-c2ccc(C(F)(F)F)cc2)nc2c1CSCC2 [XAV939] + CC(=O)c1c(C)c2cnc(Nc3ccc(N4CCNCC4)cn3)nc2n(C2CCCC2)c1=O [Palbociclib] (partner 0.5 µM)
Resp: 0.424

Req: // repeat for Oc1nc(-c2ccc(C(F)(F)F)cc2)nc2c1CSCC2 [XAV939] + COc1cc2c(Oc3ccc(NC(=O)C4(C(=O)Nc5ccc(F)cc5)CC4)cc3F)ccnc2cc1OCCCN1CCOCC1 [Foretinib] (partner 0.25 µM) and report
Resp: 0.724

Req: Follow-up item: C=C1C(=O)O[C@@H](CCCCCCCC)[C@@H]1C(=O)O [C-75] + Nc1ncn([C@H]2C[C@H](O)[C@@H](CO)O2)c(=O)n1 [Decitabine] (partner 2 µM)
Resp: 0.83

Req: Another: C=C1C(=O)O[C@@H](CCCCCCCC)[C@@H]1C(=O)O [C-75] + C[C@@H](Oc1cc(-c2cnn(C3CCNCC3)c2)cnc1N)c1c(Cl)ccc(F)c1Cl [Crizotinib] (partner 1 µM)
Resp: 0.395

Req: Entry Oc1nc(-c2ccc(C(F)(F)F)cc2)nc2c1CSCC2 [XAV939] + Nc1ncn([C@H]2C[C@H](O)[C@@H](CO)O2)c(=O)n1 [Decitabine] (partner 2 µM) please
Resp: 0.921

Req: Record: C=C1C(=O)O[C@@H](CCCCCCCC)[C@@H]1C(=O)O [C-75] + COc1cc2c(Oc3ccc(NC(=O)C4(C(=O)Nc5ccc(F)cc5)CC4)cc3F)ccnc2cc1OCCCN1CCOCC1 [Foretinib] (partner 0.25 µM)
Resp: 0.783

Req: Also Oc1nc(-c2ccc(C(F)(F)F)cc2)nc2c1CSCC2 [XAV939] + COc1cccc2cc(-c3nc([C@H]4CC[C@H](C(=O)O)CC4)n4ncnc(N)c34)[nH]c12 [OSI-027] (partner 0.5 µM) ?
Resp: 0.268

Req: Query Oc1nc(-c2ccc(C(F)(F)F)cc2)nc2c1CSCC2 [XAV939] + CC(=O)Nc1cccc(-n2c(=O)n(C3CC3)c(=O)c3c(Nc4ccc(I)cc4F)n(C)c(=O)c(C)c32)c1 [Trametinib] (partner 0.02 µM) next
Resp: 0.542

Req: Also check C=C1C(=O)O[C@@H](CCCCCCCC)[C@@H]1C(=O)O [C-75] + O=C(c1cc(Cc2n[nH]c(=O)c3ccccc23)ccc1F)N1CCN(C(=O)C2CC2)CC1 [Olaparib] (partner 8 µM)
Resp: 0.245

Req: # repeat for Oc1nc(-c2ccc(C(F)(F)F)cc2)nc2c1CSCC2 [XAV939] + O=C(CCCCCCC(=O)Nc1ccccc1)NO [Vorinostat] (partner 1 µM)
Resp: 0.43

Req: # iterate: Oc1nc(-c2ccc(C(F)(F)F)cc2)nc2c1CSCC2 [XAV939] + Cc1nc(Nc2ncc(C(=O)Nc3c(C)cccc3Cl)s2)cc(N2CCN(CCO)CC2)n1 [Dasatinib] (partner 0.075 µM)
Resp: 0.457
